Data origin, for the record: the supplement of paper PMC3898565

Form field: cell viability (one value per entry).
- Tested on: U87
- test-details: cell viability relative to vehicle control; higher = less growth inhibition (less active)
- setup-conditions: 10 µM; 72 h
quantity: cell viability (%)

INSERT INTO measurements (molecule, unit_symbol, value_measured) VALUES
  ('CC(C)Oc1ccc2c(=O)c(-c3ccccc3)coc2c1', '%', 101),
  ('CCOC(=O)C1(CCCCCCOc2ccc(Cl)cc2)CO1 (stereo unspecified)', '%', 106),
  ('CN(Cc1cnc2nc(N)nc(N)c2n1)c1ccc(C(=O)N[C@@H](CCC(=O)O)C(=O)O)cc1', '%', 72.9),
  ('COc1ccc(C2CNC(=O)C2)cc1OC1CCCC1 (stereo unspecified)', '%', 99.3),
  ('OCCN1C[C@H](O)[C@@H](O)[C@H](O)[C@H]1CO', '%', 123),
  ('NC(=O)N1c2ccccc2CC(=O)c2ccccc21 [Trileptal]', '%', 102);

----------
- Test system: U87
- test-details: cell viability relative to vehicle control; higher = less growth inhibition (less active)
- setup-conditions: 10 µM; 72 h
quantity: cell viability (%)

INSERT INTO measurements (molecule, unit_symbol, value_measured) VALUES
  ('Cc1cccc(CCN2CCC(C(=O)c3ccc(NS(C)(=O)=O)cc3)CC2)n1', '%', 103),
  ('COc1cccc2c1C(=O)c1c(O)c3c(c(O)c1C2=O)C[C@@](O)(C(=O)CO)C[C@@H]3O[C@H]1C[C@H](N)[C@H](O)[C@H](C)O1', '%', 23.5),
  ('CC(N/C(=N\C#N)Nc1ccncc1)C(C)(C)C (stereo not given) [Pinacidil monohydrate]', '%', 105),
  ('CN1CCC(=C2c3ccccc3C=Cc3ccccc32)CC1', '%', 103),
  ('NC(=O)OCC(COC(N)=O)c1ccccc1 [Felbamate]', '%', 106),
  ('Cc1c(OCC(F)(F)F)ccnc1C[S+]([O-])c1nc2ccccc2[nH]1 (stereo not given)', '%', 105),
  ('O=C1Nc2ccc(Cl)cc2[C@@](C#CC2CC2)(C(F)(F)F)O1', '%', 107),
  ('CN(C)CCC[C@@]1(c2ccc(F)cc2)OCc2cc(C#N)ccc21', '%', 103),
  ('Nc1nc(O)c2ncn(CCC(CO)CO)c2n1', '%', 103),
  ('CN1C2CCCC1CC(NC(=O)c1nn(C)c3ccccc13)C2 (stereo not given)', '%', 108);

----------
- Tested on: U87;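 note: viable cell number estimated from Alamar Blue fluorescence read at 560/90, part of a single-dose primary screen of an FDA-approved drug library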
- test-details: cell viability relative to vehicle control; higher = less growth inhibition (less active)
- setup-conditions: 10 µM; 72 h
quantity: cell viability (%)

INSERT INTO measurements (compound, value_measured) VALUES
  ('CCOC(=O)OC(C)OC1=C(C(=O)Nc2ccccn2)N(C)S(=O)(=O)c2ccccc21 (stereo not given)', 107),
  ('Cc1c(O)c(=O)ccn1C', 102),
  ('CCCCC(=O)N(Cc1ccc(-c2ccccc2-c2nnn[nH]2)cc1)[C@H](C(=O)O)C(C)C', 108),
  ('CC(C)(O)c1ccccc1CC[C@@H](SCC1(CC(=O)O)CC1)c1cccc(/C=C/c2ccc3ccc(Cl)cc3n2)c1', 102),
  ('CN(C)[C@@H]1C(O)=C(C(=O)NCN2CCCC2)C(=O)[C@@]2(O)C(O)=C3C(=O)c4c(O)cccc4[C@@](C)(O)[C@H]3C[C@@H]12', 107),
  ('COc1ccccc1OCCNCC(O)COc1cccc2[nH]c3ccccc3c12 (stereo not given) [Carvedilol]', 105),
  ('C/C=C1\[C@H]2C=C(C)C[C@]1(N)c1ccc(=O)[nH]c1C2', 106),
  ('O=C1[C@H]2CCCC[C@H]2C(=O)N1CCCCN1CCN(c2nsc3ccccc23)CC1', 102),
  ('CCOC(=O)[C@H](CCc1ccccc1)N[C@@H](C)C(=O)N1[C@H](C(=O)O)C[C@@H]2CCC[C@@H]21', 101),
  ('CO[C@H]1/C=C/O[C@@]2(C)Oc3c(C)c(O)c4c(c3C2=O)C2=NC3(CCN(CC(C)C)CC3)NC2=C(NC(=O)/C(C)=C\C=C\[C@H](C)[C@H](O)[C@@H](C)[C@@H](O)[C@@H](C)[C@H](OC(C)=O)[C@@H]1C)C4=O', 104),
  ('COc1ccc(-c2cc(=O)c3c(OC)c(OC)c(OC)c(OC)c3o2)cc1OC [Nobiletin]', 105),
  ('Nc1nnc(-c2cccc(Cl)c2Cl)c(N)n1', 102),
  ('CCN(CC)CC1CCCCN1CC(=O)N1c2ccccc2C(=O)Nc2cccnc21 (stereo not given)', 110),
  ('CC[C@]1(O)C[C@H]2CN(CCc3c([nH]c4ccccc34)[C@@](C(=O)OC)(c3cc4c(cc3OC)N(C=O)[C@H]3[C@@](O)(C(=O)OC)[C@H](OC(C)=O)[C@]5(CC)C=CCN6CC[C@]43[C@@H]65)C2)C1', 25.9),
  ('CC(C)C[C@H](NC(=O)[C@@H](COC(C)(C)C)NC(=O)[C@H](Cc1ccc(O)cc1)NC(=O)[C@H](CO)NC(=O)[C@H](Cc1c[nH]c2ccccc12)NC(=O)[C@H](Cc1cnc[nH]1)NC(=O)[C@@H]1CCC(=O)N1)C(=O)N[C@@H](CCCNC(=N)N)C(=O)N1CCC[C@H]1C(=O)NNC(N)=O', 101);
